Test system: HOP-92
Test: NCI tumour cell line growth inhibition, 48 h
Calls of active or inactive are those of the source. No stated cut-off is given here; in the data, active = GI50 up to about 1.1 µM and inactive = higher.
The reply should name one outcome from y (active), n (inactive)

Some entries whose results are on file:
# compound, assigned.category
records = [
    ("COc1ccc(-c2cc(N3CCN(c4ccccc4)CC3)c(C#N)c(=O)o2)cc1", "n"),
    ("CC(NNC(=O)c1ccncc1)c1cccc(C(F)(F)F)c1 (stereo not given)", "n"),
    ("COc1ccc(/C=C/c2nnc(S)[nH]2)cc1", "n"),
]

Query compound follows.
Req: Test call for this compound, please: Cc1ccc2c(c1C)C(=O)/C(=C/c1cccc(C)c1C(=O)O)C2
Resp: n

====

Collected GI50 values appear next to each entry.
System: OVCAR-3
Test: NCI tumour cell line growth inhibition, 48 h
Activity calls are given as the source filed them. Rule as the data show it: active = GI50 up to about 1.1 µM and inactive = higher.

Reference set (3 entries):
# smiles.notation, GI50
records = [
    ("COc1cc2cc3c4c(cc(OC)c(OC)c4c2cc1OC)CCN3C(=O)OCCN1CCNCC1", "15.3 µM (inactive)"),
    ("COc1ccc(-n2c3c(c4c(CN(C)C)c(O)ccc42)C(=O)c2ccccc2C3=O)cc1", "13.5 µM (inactive)"),
    ("C=C(C)[C@H]1C2=CC(C)=C(O2)[C@@H](O[C@@H]2c3oc(cc3C)[C@H](C(=C)C)[C@H]3C=C(CC[C@H]2C(=C)C)C(=O)O3)[C@H](C(=C)C)CCC2=C[C@H]1OC2=O", "> 100 µM (inactive)"),
]

Per the reported OVCAR-3 data, Cc1c2ccncc2c(C)c2c1[nH]c1ccc(OCCN(C)C)cc12 has GI50 of 0.333 µM (active)

====

Collected GI50 values appear next to each entry.
Test system: SNB-19
Assay: NCI tumour cell line growth inhibition, 48 h
Active and inactive are the calls of the source. Cut-off read from the data, not from the text of the source: active = GI50 up to about 1.1 µM and inactive = higher.

Reference set (5 entries):
# smiles.notation, GI50
data = [
    ("C=C(C)[C@H]1C2=CC(C(=O)OC)=C(C[C@H](C(=C)C)[C@@H](O)[C@@H](O)C3=C[C@H]1OC3=O)O2", "> 100 µM (inactive)"),
    ("CCOP(=O)(OCC)C(C)(C)OC(=O)NC#N", "> 100 µM (inactive)"),
    ("CCCCNC(=S)c1ccc(OC(=O)Nc2ccc(Cl)cc2)cc1", "> 100 µM (inactive)"),
    ("Cc1ccc(-c2c(-c3ccccc3)[nH]c(C)c2C(=O)ONC(=O)c2ccccc2)cc1", "6.38 µM (inactive)"),
    ("CCOC(=O)[C@H]1CSC[C@@H](C(=O)OC)N1", "> 100 µM (inactive)"),
]

Turning to the following molecule.
GI50 in this record for Clc1cccc(Cl)c1C(Nc1nncs1)Nc1nncs1 : 52 µM (inactive)

====

Tested on: DMS-114
Assay: NCI tumour cell line growth inhibition, 48 h
Activity calls are given as the source filed them. Cut-off read from the data, not from the text of the source: active = GI50 up to about 1.1 µM and inactive = higher.
Collected GI50 values appear next to each entry.

Reference set (2 entries):
# molecule, target.system, measured.quantity, assay.value
records = [
    ("C/C(CC(=O)CCC(=O)Nc1cccc(C(F)(F)F)c1)=N\\NC(=O)NN", "DMS-114", "GI50", "> 100 µM (inactive)"),
    ("CC(N)Cc1ccc(Cl)c(Cl)c1 (stereo unspecified)", "DMS-114", "GI50", "24.2 µM (inactive)"),
]

Turning to the following molecule.
Per the reported DMS-114 data, COc1cc(NS(C)(=O)=O)ccc1NCc1c2ccccc2nc2ccccc12 has GI50 of 17.3 µM (inactive)

====

Tested on: Hs-578T
Experiment: NCI tumour cell line growth inhibition, 48 h
The source made the active and inactive calls. Cut-off read from the data, not from the text of the source: active = GI50 up to about 1.1 µM and inactive = higher.
The reply should name one outcome from active, inactive

Req: Test call for this compound, please: C=CCOc1ccc(C2(O)c3ccccc3C3=NCCCN32)cc1 (stereo not given)
Resp: inactive

Req: Test call for this compound, please: Cc1ccc2c(c1)C(=O)C(Cc1ccccc1C(=O)O)C2 (stereo not given)
Resp: inactive

Req: Test call for this compound, please: CCOC(=O)c1cc2c(C(=O)c3ccc([N+](=O)[O-])cc3)c(C(C)=O)ccc2[nH]1
Resp: inactive

====

System: SNB-75
Assay: NCI tumour cell line growth inhibition, 48 h
Activity calls are given as the source filed them. Cut-off read from the data, not from the text of the source: active = GI50 up to about 1.1 µM and inactive = higher.
Collected GI50 values appear next to each entry.

Reference set (4 entries):
# compound, GI50
rows = [
    ("COc1ccc(/C=C/c2nnc(S)[nH]2)cc1", "> 100 µM (inactive)"),
    ("O=C1N=C2SC(=S)N=C(S)N2NC12c1ccccc1-c1ccccc12", "> 10 µM (inactive)"),
    ("CNC(=O)N(CCCCC(NC(C)=O)C(=O)NCc1ccccc1)Cc1ccccc1 (stereo not given)", "> 100 µM (inactive)"),
    ("CC(C)=CCNc1nc(Cl)nc2[nH]cnc12", "> 100 µM (inactive)"),
]

Turning to the following compound.
GI50 in this record for C=CC(Br)(CBr)CCC(Br)C(C)C (stereo not given) : 1.95 µM (inactive)

====

Collected GI50 values appear next to each entry.
System: RPMI-8226
Assay: NCI tumour cell line growth inhibition, 48 h
The source made the active and inactive calls. Rule as the data show it: active = GI50 up to about 1.1 µM and inactive = higher.

Reference set (5 entries):
# compound, assay.value
measured = [
    ("C[C@@H]1C(=O)O[C@@H]2C[C@@]1(C)[C@@H]1C(=O)C3(O)OC14C2(C)OC(=O)[C@@]4(O)CCC1C3C(O)C=C2CC=CC(=O)[C@@]21C (stereo partly drawn)", "19.7 µM (inactive)"),
    ("CC(C)=CCC[C@@H](C)C1=C(O)C(=O)C(C)=C(Nc2ccccc2I)C1=O", "9.1 µM (inactive)"),
    ("O=C1N/C(=N/N=C\\C(O)C(O)C(O)C(O)CO)N/C1=C/c1ccc(Cl)cc1 (stereo not drawn)", "> 100 µM (inactive)"),
    ("NC(Cc1ccccc1)C(=O)OCN1C(=O)C2C3C=CC(C2C1=O)C1C2C(=O)N(COC(=O)C(N)Cc4ccccc4)C(=O)C2C31 (stereo not drawn)", "27.2 µM (inactive)"),
    ("COc1cc(C(c2ccc3c(c2)OCO3)N2C(=O)CCC2C(=O)O)cc(OC)c1OC (stereo not drawn)", "> 100 µM (inactive)"),
]

GI50 in this record for COc1cc2cc3c4c(cc(OC)c(OC)c4c2cc1OC)CCN3C(=O)OCCN1CCNCC1 : 14.1 µM (inactive)

GI50 in this record for O=C(Cc1ccc(Cl)c(Cl)c1)NCCCN1CCN(CCCN2CCCCC2)CC1 : 2.71 µM (inactive)

GI50 in this record for C[Si](C)(c1ccc(C(=O)O)cc1)c1ccc(C(=O)O)cc1 : > 100 µM (inactive)

GI50 in this record for C=CCC(CNC(=O)OCc1ccccc1)OC(=O)OCc1ccccc1 (stereo not drawn) : 26.1 µM (inactive)

GI50 in this record for O=C(Cc1cc(=O)oc2cc(O)ccc12)N/N=C/c1ccc(N(CCCl)CCCl)cc1 : 16.4 µM (inactive)

GI50 in this record for CC(C)=CCC/C(C)=C/CC/C(C)=C/C(O)c1ccccc1 (stereo not drawn) : 18.7 µM (inactive)

GI50 in this record for CC1(C)C2CC1C(/C=N\OCC(=O)O)=CC2=O (stereo not drawn) : > 100 µM (inactive)

GI50 in this record for Cn1c2ccccc2n2c3ncccc3c(=S)c(C#N)c12 : > 100 µM (inactive)

GI50 in this record for O=c1c2ccccc2nc2n1C(c1ccc([N+](=O)[O-])cc1)C2(c1ccccc1)c1ccccc1 (stereo not drawn) : 8.2 µM (inactive)

GI50 in this record for O=c1c2ccccc2[nH]c2ccc3c(Cl)n[nH]c3c12 : 39.7 µM (inactive)

GI50 in this record for CCOC(=O)C(C[Si](C)(C)C)P(=O)(OCC)OCC (stereo not drawn) : > 100 µM (inactive)

GI50 in this record for O=C(Cn1c(=O)ccn(C2OC(CO)C(O)C2F)c1=O)c1ccc(F)cc1 (stereo not drawn) : > 100 µM (inactive)

GI50 in this record for O=C1N=C2SC(=S)N=C(S)N2NC12c1ccccc1-c1ccccc12 : 7.57 µM (inactive)

GI50 in this record for COc1ccc(C(=O)C(c2ccc(OC)cc2)C2(O)C(=O)Nc3ccc([N+](=O)[O-])cc32)cc1 (stereo not drawn) : > 100 µM (inactive)

GI50 in this record for N#CC(C#N)=C1CCC2C(=C(C#N)C#N)CCC12 (stereo not drawn) : > 100 µM (inactive)

GI50 in this record for CC(=O)c1c2n(n(-c3ccccc3)c1=O)C(=O)c1nccnc1-2 : > 100 µM (inactive)

====

Tested on: OVCAR-4
Assay: NCI tumour cell line growth inhibition, 48 h
Active and inactive are the calls of the source. Rule as the data show it: active = GI50 up to about 1.1 µM and inactive = higher. Starred links: 1 amine or outer side, 2 acyl side, 3 side chain; linkers in the order of their positions; H or OH if unused. Non-standard residues stand in square brackets, D forms with d. Residues, ends and D or L forms follow the SMILES beside them. X41 = CSCCCC(N[*:1])C(=O)[*:2]
Collected GI50 values appear next to each entry.

Reference set (2 entries):
# molecule, target.system, GI50
rows = [
    ("Nc1ccc(S(=O)(=O)c2ccc(NCN3C(=O)NC(=O)C(=O)C3=O)cc2)cc1 [ALLANTODAPSONE]", "OVCAR-4", "> 100 µM (inactive)"),
    ("CSCCCC(NC(=O)CNC(=O)C1CCCN1C(=O)C(Cc1ccc(O)cc1)NC(=O)C(Cc1ccccc1)NC(=O)C(CCCNC(=N)N)NC(=O)C(CC(=O)O)NC(=O)C1CCCN1C(=O)C(CC(=O)O)NC(=O)C1CCCN1C(=O)C1CCCN1C(=O)CN)C(N)=O (stereo not drawn) (H-GPPDPDRFYPG[X41]-NH2; configuration not given here)", "OVCAR-4", "> 50 µM (inactive)"),
]

GI50 in this record for O=C(NCCCN1CCN(CCCNC(=O)c2cnc3ccccc3n2)CC1)c1cnc2ccccc2n1 : > 100 µM (inactive)
